src = ChEMBL document CHEMBL4041465

system: Escherichia coli; assay: Antibacterial activity against Escherichia coli MTCC 443 after 24 hrs by broth microdilution method; assay type: functional; details: MTCC 443, 24 h
Recorded Metric: MIC (µg/mL)

Short answer for COc1ccc2oc(=O)cc(C(CC(=O)O)c3c(C)n[nH]c3O)c2c1 (stereo unspecified) : MIC was 3.12

Note to self: MIC recorded for Cc1n[nH]c(O)c1C(CC(=O)O)c1cc(=O)oc2ccc(Cl)cc12 (stereo unspecified) was 25

Sample Cc1ccc2c(C(CC(=O)O)c3c(C)n[nH]c3O)cc(=O)oc2c1 (stereo unspecified) ; MIC observed: 6.25

Form field MIC, entry Cc1n[nH]c2c1C(c1cc(=O)oc3ccc(Cl)cc13)C(C#N)=C(N)O2 (stereo unspecified) : 3.12

Briefly, MIC measured for COc1ccc2oc(=O)cc(C3C(C#N)=C(N)Oc4[nH]nc(C)c43)c2c1 (stereo unspecified) : 6.25

A: CCOC(=O)C1=C(N)Oc2[nH]nc(C)c2C1c1cc(=O)oc2ccc(OC)cc12 (stereo unspecified)
B: Cc1ccc2oc(=O)cc(C3C(C#N)=C(N)Oc4[nH]nc(C)c43)c2c1 (stereo unspecified)
C: Cc1ccc2c(C3C(C#N)=C(N)Oc4[nH]nc(C)c43)cc(=O)oc2c1 (stereo unspecified)
Rank by MIC (largest to smallest). Your reply should list the labels following the order given in the request.
B, A, C

* * *

test system: Staphylococcus aureus; assay: Antibacterial activity against Staphylococcus aureus MTCC 12598 after 24 hrs by broth microdilution method; format: functional; details: MTCC 12598, 24 h
Recorded Metric: MIC (µg/mL)

Reported MIC of Cc1n[nH]c(O)c1C(CC(=O)O)c1cc(=O)oc2ccc(Cl)cc12 (stereo not given) : 1.56

Sample Cc1ccc2oc(=O)cc(C(CC(=O)O)c3c(C)n[nH]c3O)c2c1 (stereo not given) ; MIC observed: 3.12

The measured MIC associated with Cc1n[nH]c2c1C(c1cc(=O)oc3ccc(Cl)cc13)CC(=O)O2 (stereo not given) reads 6.25

The recorded MIC for Cc1n[nH]c(O)c1C(CC(=O)O)c1cc(=O)oc2c1ccc1ccccc12 (stereo not given) is 6.25

Form: molecule = Cc1ccc2c(C(CC(=O)O)c3c(C)n[nH]c3O)cc(=O)oc2c1 (stereo not given) ; MIC = 3.12

Item: CCOC(=O)C1=C(N)Oc2[nH]nc(C)c2C1c1cc(=O)oc2ccc(C)cc12 (stereo not given) | MIC: 3.12

# MIC of Cc1ccc2oc(=O)cc(C3C(C#N)=C(N)Oc4[nH]nc(C)c43)c2c1 (stereo not given) = 6.25

The reported value for Cc1n[nH]c2c1C(c1cc(=O)oc3ccc(Cl)cc13)C(C#N)=C(N)O2 (stereo not given) in terms of MIC is 3.12

Input CCOC(=O)C1=C(N)Oc2[nH]nc(C)c2C1c1cc(=O)oc2cc(C)ccc12 (stereo not given) . Output MIC: 3.12

Lab note: measured MIC of Cc1ccc2c(C3CC(=O)Oc4[nH]nc(C)c43)cc(=O)oc2c1 (stereo not given) was 6.25

a: CCOC(=O)C1=C(N)Oc2[nH]nc(C)c2C1c1cc(=O)oc2ccc(Cl)cc12 (stereo not given)
b: Cc1ccc2oc(=O)cc(C3CC(=O)Oc4[nH]nc(C)c43)c2c1 (stereo not given)
c: Cc1n[nH]c2c1C(c1cc(=O)oc3c1ccc1ccccc13)CC(=O)O2 (stereo not given)
d: COc1ccc2oc(=O)cc(C(CC(=O)O)c3c(C)n[nH]c3O)c2c1 (stereo not given)
e: CCOC(=O)C1=C(N)Oc2[nH]nc(C)c2C1c1cc(=O)oc2ccc(OC)cc12 (stereo not given)
Sort the molecules on MIC; start with the lowest figure. Answer format: the labels, in the requested order.
d, e, a, b, c

* * *

test system: Escherichia coli; test: Antibacterial activity against Escherichia coli MTCC 443 after 24 hrs by broth microdilution method; type: functional; conditions: MTCC 443, 24 h
Recorded Metric: MIC (µg/mL)

Use the examples below as a reference point.
Value of measured MIC for the entry O=C(O)c1cn(C2CC2)c2cc(N3CCNCC3)c(F)cc2c1=O : 3.12

Quick note, MIC for Cc1n[nH]c2c1C(c1cc(=O)oc3c1ccc1ccccc13)CC(=O)O2 (stereo not given) landed at 12.5

a: Cc1n[nH]c(O)c1C(CC(=O)O)c1cc(=O)oc2c1ccc1ccccc12 (stereo not given)
b: Cc1ccc2c(C3CC(=O)Oc4[nH]nc(C)c43)cc(=O)oc2c1 (stereo not given)
I'm curious, which of these has a smaller MIC number: a or b ? Lab log: write the label of the selected item as the result.
a

* * *

system: Escherichia coli; assay: Antibacterial activity against Escherichia coli MTCC 443 after 24 hrs by broth microdilution method; type: functional; details: MTCC 443, 24 h
Recorded Metric: MIC (µg/mL)

// MIC value for Cc1ccc2oc(=O)cc(C3CC(=O)Oc4[nH]nc(C)c43)c2c1 (stereo not drawn) : 3.12

Documented MIC of CCOC(=O)C1=C(N)Oc2[nH]nc(C)c2C1c1cc(=O)oc2cc(C)ccc12 (stereo not drawn) : 3.12

Short answer for Cc1n[nH]c2c1C(c1cc(=O)oc3ccc(Cl)cc13)CC(=O)O2 (stereo not drawn) : MIC was 6.25

a: CCOC(=O)C1=C(N)Oc2[nH]nc(C)c2C1c1cc(=O)oc2ccc(Cl)cc12 (stereo not drawn)
b: Cc1ccc2oc(=O)cc(C(CC(=O)O)c3c(C)n[nH]c3O)c2c1 (stereo not drawn)
Which entry has a larger number for MIC, a or b ? Give the label under which the chosen entry appears.
b
(b: 12.5 µg/mL, a: 6.25 µg/mL)

* * *

test system: Staphylococcus aureus; assay: Antibacterial activity against Staphylococcus aureus MTCC 12598 after 24 hrs by broth microdilution method; type: functional; settings: MTCC 12598, 24 h
Recorded Metric: MIC (µg/mL)

Examples with their reported MIC follow.
Note to self: MIC recorded for Cc1ccc2c(C3C(C#N)=C(N)Oc4[nH]nc(C)c43)cc(=O)oc2c1 (stereo not given) was 6.25

# compound COc1ccc2oc(=O)cc(C3CC(=O)Oc4[nH]nc(C)c43)c2c1 (stereo not given) ; its MIC = 3.12

Form field MIC, entry COc1ccc2oc(=O)cc(C3C(C#N)=C(N)Oc4[nH]nc(C)c43)c2c1 (stereo not given) : 3.12

1: Cc1n[nH]c2c1C(c1cc(=O)oc3c1ccc1ccccc13)C(C#N)=C(N)O2 (stereo not given)
2: CCOC(=O)C1=C(N)Oc2[nH]nc(C)c2C1c1cc(=O)oc2c1ccc1ccccc12 (stereo not given)
Min MIC? 1 | 2 Answer format: the label of the selected item.
2
(2: 3.12 µg/mL, 1: 6.25 µg/mL)

* * *

system: Escherichia coli; experiment: Antibacterial activity against Escherichia coli MTCC 443 after 24 hrs by broth microdilution method; assay type: functional; details: MTCC 443, 24 h
Recorded Metric: MIC (µg/mL)

I: COc1ccc2oc(=O)cc(C3CC(=O)Oc4[nH]nc(C)c43)c2c1 (stereo not drawn)
II: CCOC(=O)C1=C(N)Oc2[nH]nc(C)c2C1c1cc(=O)oc2ccc(C)cc12 (stereo not drawn)
III: Cc1n[nH]c2c1C(c1cc(=O)oc3c1ccc1ccccc13)C(C#N)=C(N)O2 (stereo not drawn)
Let's sort these by MIC, smallest first. Go ahead? Would you mind listing the labels in the order requested?
I, II, III
